assay_info: qHTS assay to identify small molecule phospholipidosis (PLD) inducers (AID 1259344)
experimental_parameters: HepG2 phospholipidosis, LipidTOX Red imaging, 24 h; series mostly up to 38.3 µM
Inconclusive results are not listed. Calls of active or inactive are those of the source. The call rests on the fitted dose curve; in most records, active means well fitted activation curve with a large enough effect; inconclusive means small, poorly fitted or top-dose-only effect; inactive means flat fitted curve, though single readings scatter.
Your answer must be one of the following: active, inactive

Past entries and their recorded results:
INSERT INTO measurements (compound, class) VALUES
  ('Oc1ccc(CCNCCCCCCNCCc2ccccc2)cc1O', 'inactive'),
  ('CC1=CC(=C(c2ccc(N)cc2)c2ccc(N)cc2)C=CC1=N', 'inactive'),
  ('CCCc1nc(C)c2c(=O)[nH]c(-c3cc(S(=O)(=O)N4CCN(CC)CC4)ccc3OCC)nn12', 'inactive'),
  ('CCc1c(C)[nH]c2c1C(=O)C(CN1CCOCC1)CC2 (configuration not stated)', 'inactive'),
  ('CCCCCCCCCCCCSCCOCCO', 'inactive'),
  ('Cc1c(Nc2ncccc2C(=O)O)cccc1C(F)(F)F', 'inactive'),
  ('CC(Cc1ccccc1)(NC(=O)CN)c1ccccc1 (configuration not stated)', 'inactive'),
  ('CCOC(C)OCC', 'inactive');

Query: Hi, sorry to bother you, what did the test record for CC1(COc2ccc(CC3SC(=O)NC3=O)cc2)CCCCC1 (configuration not stated) ?
Result: inactive

Query: Give the logged outcome of this assay for the following compound: `C[C@H](CN1CCCC1)C(=O)c1ccc(C(F)(F)F)cc1`
Result: inactive

Query: Write down the call the test reported for this compound. Item: CC(COc1ccccc1)NC(C)C(O)c1ccc(O)cc1 (configuration not stated)
Result: inactive

Query: Which outcome was assigned to `C/C=C1\[C@H]2C=C(C)C[C@]1(N)c1ccc(=O)[nH]c1C2` in this test?
Result: inactive

Query: Field: outcome | Entry: `CCCCCCCCCCCCCCCCN`
Result: inactive

Query: // outcome(item) with item = `Cc1cccc(C)c1NC(=O)CN1CCCC1`
Result: inactive

Query: Outcome? CC(C)(C)NCC(O)COc1ccc(NC(=O)NC2CCCCC2)cc1 (configuration not stated)
Result: inactive

Query: For this compound, state the assay outcome: `Nc1nc(Cl)nc2c1ncn2[C@H]1C[C@H](O)[C@@H](CO)O1`
Result: inactive

Query: # lookup: test call for `O=C(O)CCc1nc2ccccc2[nH]1`
Result: inactive

Query: Recorded test call requested for CC(C)(C(=O)O)c1ccc(C(O)CCCN2CCC(C(O)(c3ccccc3)c3ccccc3)CC2)cc1 (configuration not stated)
Result: inactive

Query: So what was the verdict on `COc1cc(C)c(Cc2cnc(N)nc2N)cc1OC` in this test?
Result: inactive

###

target_or_test_system: Peroxisome proliferator-activated receptor gamma (Homo sapiens) (UniProt P37231)
Sequence (P37231 whole entry, looked up): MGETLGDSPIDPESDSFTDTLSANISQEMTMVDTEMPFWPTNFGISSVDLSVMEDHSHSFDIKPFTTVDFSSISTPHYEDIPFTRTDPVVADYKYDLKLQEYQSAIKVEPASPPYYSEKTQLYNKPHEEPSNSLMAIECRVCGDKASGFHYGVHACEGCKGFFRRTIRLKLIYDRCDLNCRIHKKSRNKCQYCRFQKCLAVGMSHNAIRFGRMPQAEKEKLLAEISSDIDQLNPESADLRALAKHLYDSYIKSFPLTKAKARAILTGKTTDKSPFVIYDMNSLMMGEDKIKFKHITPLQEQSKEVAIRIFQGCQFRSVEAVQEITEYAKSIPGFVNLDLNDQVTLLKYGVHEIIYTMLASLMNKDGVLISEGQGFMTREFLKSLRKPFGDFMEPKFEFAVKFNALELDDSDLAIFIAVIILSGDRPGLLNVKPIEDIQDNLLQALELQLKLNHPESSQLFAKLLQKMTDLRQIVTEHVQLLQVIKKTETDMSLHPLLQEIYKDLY
assay_info: qHTS assay to identify small molecule antagonists of the peroxisome proliferator-activated receptor gamma (PPARg) signaling pathway (AID 743191); further: nearly all actives have a fitted effect of over 30% in size
experimental_parameters: HEK293H PPARg-UAS-bla, beta-lactamase ratio, antagonist, 17 h; series mostly up to 62.6 µM
Inconclusive results are not listed. Active and inactive are the calls of the source. Calls follow the shape of the full dose curve.
Pick one and only one: active, inactive

INSERT INTO measurements (compound, class) VALUES
  ('CCOC(OCC)OCC', 'inactive'),
  ('CC1=C(C)C(=O)C(C(CCCCCC(=O)O)c2ccccc2)=C(C)C1=O (centres undefined)', 'inactive'),
  ('O=P(c1ccccc1)(c1ccccc1)c1ccccc1', 'inactive'),
  ('O=C1OC(=O)C2CC=CCC12 (centres undefined)', 'inactive'),
  ('C[Si](C)(C)O[Si](C)(C)O[Si](C)(C)C', 'inactive');

Query: For `Nc1ccc(C(=O)Oc2ccccc2)c(O)c1` , which call appears in the assay record?
Result: inactive

Query: Please state the recorded outcome for this compound: `CCCCCCCCS`
Result: inactive

Query: Status in this test for `CC(C)CCCCCCCOC(=O)c1ccc(C(=O)OCCCCCCCC(C)C)c(C(=O)OCCCCCCCC(C)C)c1` ?
Result: inactive

Query: Short answer needed: outcome of this test for `OCCOc1cccc(OCCO)c1` ?
Result: inactive

Query: Dear colleague, could you share the recorded outcome for `CCCN(C1CCN(C(=O)C2CCNCC2)CC1)[C@@H]1CCc2ccc(OC)cc2C1` when you have a moment?
Result: inactive

Query: Which outcome did this test record for the compound `CCCCCCCCCCCCCCCCC(=O)O` ?
Result: inactive
